- Test Details: basal MM1S mitochondrial membrane potential changes, profiling panel, cell-based, JC-1 fluorescence, 24 h, 100 nL compound (AID 1170); note: test concentration not given here
- Experimental Conditions: higher = more signal
Experimental Readout: z-score
# answer = number (no unit)

Need z-score, item CO[C@H]1O[C@H](CO)[C@@H](OC(=O)Nc2ccc(C#N)cc2)[C@@H]2OC(=O)[C@H](Cc3cccc(Br)c3)C/C=C/C[C@@H](Cc3cccc(Br)c3)C(=O)O[C@@H]12
-0.935

Need z-score, item CCOC(=O)C1=CCC(c2ccccc2)N(S(=O)(=O)c2ccc([N+](=O)[O-])cc2)C1 (stereo not drawn)
-1.37

Need z-score, item C=CCN1C(=O)[C@]2(O[C@H](CCO)[C@@H]([Si](C)(C)c3ccc(OC)cc3)[C@@H]2C)c2cc(N3C(=O)COc4ccccc43)ccc21
-2.25

---

- Test system: Chordin-like protein 2 (CHRDL2)
- Test Details: CHRDL2 small-molecule binders, primary screen, biochemical, small-molecule microarray, 635 nm fluorescence (AID 1126);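 note: printed compound slides probed with Chrdl2 protein at 4 µg/mL for 1 h at 4 C; score merges 667 nm emission intensity with signal to noise over three replicate slides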
- Experimental Conditions: small-molecule microarray binding, fluorescence 635 nm; higher = more signal
Measured composite z-score, listed per entry.

Sample Smiles: COCCOC(=O)N1C(=O)[C@@]2(c3cc(C#CCNC(N)=O)ccc31)[C@H](c1ccc(OCCO)cc1)N1[C@H](c3ccccc3)[C@H](c3ccccc3)OC(=O)[C@H]1[C@@H]2C(N)=O
composite z-score: 0.457
//
Sample Smiles: COCCOC(=O)N1C(=O)[C@@]2(c3cc(C#CCC(C(=O)OC)C(=O)OC)ccc31)[C@H](C(=O)NC[C@H](O)c1ccccc1)[C@H]1C(=O)O[C@H](c3ccccc3)[C@H](c3ccccc3)N1[C@@H]2c1ccc(O)cc1
composite z-score: -0.769

Need composite z-score, item CCCCC(=O)N(CCN1CCOCC1)[C@@H]1CC(C(=O)NCCO)=C[C@H](Oc2c(I)cc(CO)cc2OC)[C@H]1O
0.459

---

- Test Details: MM1S cell viability effects, profiling panel, calcein-AM fluorescence, 48 h, basal (AID 1165);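 note: viability of MM1S multiple myeloma cells under basal unstimulated conditions; test concentration not given here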
- Experimental Conditions: higher = more signal
Measured z-score, listed per entry.
# answer = number (no unit)

Below, each entry is followed by its recorded z-score result.
Molecule: CC(CO)N1C(=O)[C@@H]2[C@H]3C(=O)OCC=C[C@H]3OC23C=CCN(c2ccc(Cl)cc2)C(=O)[C@@H]13 (some centres undefined)
z-score: 0.829
//
Molecule: CN1C(=O)C2C=CC(C(O)c3cc(C(F)(F)F)cc(C(F)(F)F)c3)N(Nc3ccccc3)C2C1=O (centres undefined)
z-score: -0.239

Need z-score, item O=C(NCC(O)CO)[C@@]1(CCS(=O)(=O)c2ccccc2)COC(c2ccc(OCCCO)cc2)=N1 (some centres undefined)
-1.29

Need z-score, item O=C(NCCN1CCOCC1)[C@@H]1c2ccccc2C(=O)N(Cc2ccccc2)[C@H]1c1ccc(CO)cc1
-0.593

---

- Target: Calmodulin-1 (Homo sapiens)
- Test Details: calcium-bound CALM1 binders on microarrays, profiling panel, artefact control for SMM control-protein annotation, biochemical, small-molecule microarray, Cy5-labelled CALM1, plus calcium (AID 1112);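 note: score merges spot fluorescence with signal to noise from triplicate slides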
- Experimental Conditions: Cy5-CALM1 binding fluorescence, higher = more signal
Measured composite z-score, listed per entry.

Molecule: C=C(C(=O)CC[C@@H](OC(=O)c1ccccc1-c1ccccc1C(=O)O)c1ccccc1OCCO)C(C)C
Assay Result: -0.7

Molecule: CCCCCN1CC=CC23O[C@@H]4/C=C\CCC(C)OC(=O)C4[C@H]2C(=O)N(CCCCCCO)[C@@H]3C1=O (stereo partly drawn)
Assay Result: 0.369

Molecule: CN(C)C(=O)[C@@]1(CCC(=O)OC(C)(C)C)N=C(c2ccc(OCCCO)cc2)O[C@H]1c1ccccc1CN=[N+]=[N-]
Assay Result: 0.0572

Molecule: [N-]=[N+]=NC[C@H](Cc1ccccc1)NC(=O)c1ccccc1
Assay Result: -0.203

Molecule: COC(=O)[C@@]1(Cc2ccccc2)[C@H]2c3cc(C(=O)N(C)C)n(CCn4cc([N+](=O)[O-])nc4C)c3C[C@H]2CN1C(=O)c1ccccc1
Assay Result: 0.361

Molecule: CCCC=C(CCC)[C@@H](NC(=O)CCc1ccccc1)c1ccc(C(F)(F)F)cc1
Assay Result: 1.03

Molecule: O=C1N[C@@H](Cc2ccccc2)C(=O)N2[C@@H]1C[C@@H](C(=O)O)[C@H]2c1ccc(O)cc1
Assay Result: -0.661

Need composite z-score, item O=C(NCC(O)CO)[C@@]1(CCS(=O)(=O)c2ccccc2)COC(c2ccc(OCCCO)cc2)=N1 (stereo partly drawn)
1.09
